Taken from patent US9732075B2.

Form field: pIC50 (one value per entry).
system: human orexin-2 receptor (Homo sapiens (Human))
Sequence (O43614 whole entry): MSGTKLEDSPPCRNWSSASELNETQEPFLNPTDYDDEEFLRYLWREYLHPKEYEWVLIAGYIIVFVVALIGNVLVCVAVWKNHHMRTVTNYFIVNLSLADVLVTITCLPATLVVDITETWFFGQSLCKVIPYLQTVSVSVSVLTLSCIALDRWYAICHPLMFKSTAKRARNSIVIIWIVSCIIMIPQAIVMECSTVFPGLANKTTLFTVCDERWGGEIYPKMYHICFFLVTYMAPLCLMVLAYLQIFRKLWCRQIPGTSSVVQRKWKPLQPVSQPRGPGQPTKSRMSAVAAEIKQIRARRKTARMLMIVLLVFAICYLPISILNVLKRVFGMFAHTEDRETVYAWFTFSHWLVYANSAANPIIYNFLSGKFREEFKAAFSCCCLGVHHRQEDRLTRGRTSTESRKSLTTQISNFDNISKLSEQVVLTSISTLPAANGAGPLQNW
procedure text: In vitro assay: intracellular calcium measurements (FLIPR), antagonistic activity
measurement parameters: CHO cells expressing human orexin-2 receptor, orexin-A agonist, geometric mean, read-out: IC50 Ox2
pIC50 is a log-scale quantity: -log10 of the concentration expressed in molar.

Cc1ccc(-n2nccn2)c(C(=O)N2CCC[C@@]2(C)c2nc3cc(Br)cc(C)c3[nH]2)c1: 7.70

For the compound shown here, `Cc1cc(F)ccc1-c1nc(C(=O)N2CCC[C@@]2(C)c2nc3c(C)c(Cl)ccc3[nH]2)c(-c2ccc(F)cc2)s1` , give the reported pIC50. 5.33

// repeat for `Cc1ccc(-n2nccn2)c(C(=O)N2CC[C@H](C)[C@H]2c2nc3cccc(C)c3[nH]2)c1` and report 6.11

Now consider `COc1ccc(-c2ccc(F)cc2)c(C(=O)N2CCC[C@@]2(C)c2nc3ccc(Cl)c(C)c3[nH]2)c1F` . 7.68

###

system: human orexin-2 receptor (Homo sapiens (Human))
procedure text: In vitro assay: intracellular calcium measurements (FLIPR), antagonistic activity
measurement parameters: CHO cells expressing human orexin-2 receptor, orexin-A agonist, geometric mean, read-out: IC50 Ox2
measured endpoint: log10(IC50) (log10 of the value in nM)
# log10 transformed; quantity=IC50; unit=nM

Consider the following illustrative entries.
C=C1C[C@@H](c2nc3c(C)c(C)ccc3[nH]2)N(C(=O)c2nc(C)sc2-c2ccc(C)c(C)c2)C1 [Ex. 6.47]: 0.00
Cc1cccc(-c2ccc(C)cc2C(=O)N2CCC[C@@]2(C)c2nc3cc(C(F)(F)F)ccc3[nH]2)c1 [Ex. 5.189]: 1.79
COc1cccc(C#Cc2ccccc2C(=O)N2CCC[C@@]2(C)c2nc3c(C)cc(Br)cc3[nH]2)c1 [Ex. 5.249]: 1.72
Cc1cc2[nH]c([C@@H]3[C@@H](C)CCN3C(=O)c3cc(F)ccc3-c3ccccc3)nc2cc1Cl [Ex. 4.105]: 2.25
Cc1c(Cl)ccc2nc([C@]3(C)CCCN3C(=O)c3cc(F)ccc3-c3cccnc3)[nH]c12 [Ex. 5.220]: 2.40

Given the compound COc1cccc(-c2ccccc2C(=O)N2CCC[C@@]2(C)c2nc3c(C)c(C)ccc3[nH]2)c1 [Ex. 5.117] , what is its reported log10(IC50)? 1.58

Continue with Cc1ccc(-n2nccn2)c(C(=O)N2CCC[C@@]2(C)c2nc3c(C)cc(C)cc3[nH]2)c1 [Ex. 5.16] 1.26

###

system: human orexin-1 receptor (Homo sapiens (Human))
Sequence (O43613 whole entry): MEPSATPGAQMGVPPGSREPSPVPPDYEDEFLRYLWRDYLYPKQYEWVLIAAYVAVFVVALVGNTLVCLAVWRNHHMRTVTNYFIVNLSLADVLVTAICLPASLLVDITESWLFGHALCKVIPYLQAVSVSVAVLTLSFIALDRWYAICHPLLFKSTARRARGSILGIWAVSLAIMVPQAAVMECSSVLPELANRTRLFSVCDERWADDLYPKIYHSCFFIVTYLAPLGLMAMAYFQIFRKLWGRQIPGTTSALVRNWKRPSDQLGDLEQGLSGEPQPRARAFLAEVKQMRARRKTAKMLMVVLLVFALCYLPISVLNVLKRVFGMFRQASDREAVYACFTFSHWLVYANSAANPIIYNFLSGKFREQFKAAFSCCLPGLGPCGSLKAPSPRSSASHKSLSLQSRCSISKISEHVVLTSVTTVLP
procedure text: In vitro assay: intracellular calcium measurements (FLIPR), antagonistic activity
measurement parameters: CHO cells expressing human orexin-1 receptor, orexin-A agonist, geometric mean, read-out: IC50 Ox1
measured endpoint: pIC50
For clarity, pIC50 is expressed as the negative log10 of concentration in mol/L.

Below are worked cases with known answers.
Cc1nc(C(=O)N2CC[C@H](C)[C@H]2c2nc3c(C(F)(F)F)cccc3[nH]2)c(-c2ccc(F)cc2)s1 [Ex. 4.149]: 7.85
Cc1nc(C(=O)N2CC[C@H](C)[C@H]2c2nc3c(Cl)cccc3[nH]2)c(-c2ccc(Cl)cc2)s1 [Ex. 4.120]: 7.85

Please give the measured pIC50 for this compound: Cc1ccc2[nH]c([C@]3(C)CCCN3C(=O)c3ccccc3-c3ccccc3F)nc2c1C [Ex. 5.121] 7.25

Can you check COc1ccc(-n2nccn2)c(C(=O)N2C[C@H](OC)CC2(C)c2nc3c(C)c(Cl)ccc3[nH]2)c1F (stereo partly shown) [Ex. 3.46] next? 6.65
